Observed MEAN CpLDH INHIBITION (%) values for recombinant CpLDH protein (Cryptosporidium parvum, UniProt Q9GT92, F198L/K295E/R251K) are listed in what follows.

{"compound": "O=C(NC(=O)c1c(Cl)nc2sccn12)Nc1ccc(Cl)cc1", "MEAN CpLDH INHIBITION (%)": -19.92}
{"compound": "Cc1cc2cc3cc(C)c(N)cc3nc2cc1N.Cl", "MEAN CpLDH INHIBITION (%)": -3.43}
{"compound": "O=C1c2ccccc2C(=O)c2c(NCCNCCO)ccc(O)c21", "MEAN CpLDH INHIBITION (%)": -23.00}
{"compound": "COc1ccc(-c2csc(=[N+]3CCCCC3)s2)cc1", "MEAN CpLDH INHIBITION (%)": 0.36}
{"compound": "COc1cc2c3cc1Oc1c(OC)c(OC)cc4c1[C@H](Cc1ccc(cc1)Oc1cc(ccc1O)C[C@H]3N(C)CC2)N(C)CC4", "MEAN CpLDH INHIBITION (%)": -27.33}
{"compound": "CC(=O)C(N1CCCCC1)C(O)(C(F)(F)F)C(F)(F)F (stereo not drawn)", "MEAN CpLDH INHIBITION (%)": -14.71}
{"compound": "Oc1ccc(/C=N/NC(=S)Nc2cccnc2)nc1", "MEAN CpLDH INHIBITION (%)": -8.17}
{"compound": "Nc1ncnc2c1nnn2[C@@H]1O[C@H](CO)[C@@H](O)[C@H]1O", "MEAN CpLDH INHIBITION (%)": -2.40}
{"compound": "CCOC(=O)C1=C(O)CSC1=Nc1ccc(N=C2SCC(O)=C2C(=O)OCC)cc1", "MEAN CpLDH INHIBITION (%)": -45.42}

---

# study-target: recombinant CpLDH protein (Cryptosporidium parvum, UniProt Q9GT92, F198L/K295E/R251K)
# condition-context: pyruvate/NADH: reduction reaction pH 7.5; lactate/NAD+: oxidation reaction pH 9.2; 25°C
observable: Km (µM)

{"compound": "CC(O)C(=O)O (stereo not shown) [Lactate, lactate]", "measurement": 39600}
{"compound": "NC(=O)C1=CN([C@@H]2O[C@H](COP(=O)(O)OP(=O)(O)OC[C@H]3O[C@@H](n4cnc5c(N)ncnc54)[C@H](O)[C@@H]3O)[C@@H](O)[C@H]2O)C=CC1 [NADH]", "measurement": 734}
{"compound": "CC(=O)C(=O)O [Pyruvate, pyruvate]", "measurement": 731}
{"compound": "NC(=O)c1ccc[n+]([C@@H]2O[C@H](COP(=O)([O-])OP(=O)(O)OC[C@H]3O[C@@H](n4cnc5c(N)ncnc54)[C@H](O)[C@@H]3O)[C@@H](O)[C@H]2O)c1 [NAD^+]", "measurement": 56}

---

# study-target: recombinant CpLDH protein (Cryptosporidium parvum, UniProt Q9GT92, F198L/K295E/R251K)
Entries and their MEAN CpLDH INHIBITION (%) values follow.

{"compound": "Nc1nc(=S)c2ncn(C3CC(O)C(CO)O3)c2[nH]1 (stereo not shown)", "MEAN CpLDH INHIBITION (%)": -30.23}
{"compound": "CCCCCCCCCCSCC(CO)NC(=O)/C=C/c1c(C)[nH]c(=O)[nH]c1=O (stereo not shown)", "MEAN CpLDH INHIBITION (%)": -39.94}
{"compound": "O=C(c1ccccc1)C1OC12C(=O)Nc1c(Cl)cc(Cl)cc12 (stereo not shown)", "MEAN CpLDH INHIBITION (%)": -37.53}
{"compound": "COCC(=O)OC1CCn2c1nc1c2C(=O)C(C)=C(NC(C)=O)C1=O (stereo not shown)", "MEAN CpLDH INHIBITION (%)": -15.88}
{"compound": "CO[C@H]1C[C@H](O[C@H]2CC[C@]3(C=O)[C@H]4CC[C@]5(C)[C@@H](C6=CC(=O)OC6)CC[C@]5(O)[C@@H]4CC[C@]3(O)C2)O[C@H](C)[C@H]1O[C@@H]1O[C@H](CO[C@@H]2O[C@H](CO)[C@@H](O)[C@H](O)[C@H]2O)[C@@H](O)[C@H](O)[C@H]1O", "MEAN CpLDH INHIBITION (%)": -3.24}
{"compound": "COc1cc2cc3c4cc(OC)c(OC)cc4cc[n+]3c(C)c2cc1OC.O=C([O-])CS(=O)(=O)O", "MEAN CpLDH INHIBITION (%)": -11.41}
{"compound": "COc1cc2oc(=O)cc(C)c2cc1[N+](=O)[O-]", "MEAN CpLDH INHIBITION (%)": -32.05}
{"compound": "C[C@]12C=CC(=O)C=C1[C@@H](F)C[C@H]1[C@@H]3CC[C@](O)(C(=O)CO)[C@@]3(C)C[C@H](O)[C@@]12F", "MEAN CpLDH INHIBITION (%)": -2.42}
{"compound": "C[C@H]1O[C@@H](c2ccc3c(c2O)C(=O)C2=C(C3=O)[C@@]3(O)C(=O)C[C@](C)(O)C[C@@]3(O)C=C2)C[C@@H](O)[C@@H]1O", "MEAN CpLDH INHIBITION (%)": -31.06}
{"compound": "C=C1C(=O)OCC2C(C(=O)O)=CC3C(C)C(C)=CC123 (stereo not shown)", "MEAN CpLDH INHIBITION (%)": -64.31}
{"compound": "NC(=O)N/N=C1\\CC2C3CC4C2C4C13 (stereo not shown)", "MEAN CpLDH INHIBITION (%)": -116.36}
{"compound": "CCOC(=O)CNC(=O)NC12CC3CC(CC(C3)C1)C2", "MEAN CpLDH INHIBITION (%)": -37.53}
{"compound": "O=[N+]([O-])c1ccc2c(N=Nc3c(O)ccc4ccccc34)c(O)cc(S(=O)(=O)[O-])c2c1.[Na+]", "MEAN CpLDH INHIBITION (%)": 54.98}
{"compound": "C=CC(=O)N1C/C(=C\\c2ccccc2)C(=O)/C(=C/c2ccccc2)C1", "MEAN CpLDH INHIBITION (%)": -21.11}
{"compound": "O=C(O)c1ccccc1-c1ccccc1C(=O)Nc1ccc2c(c1)Cc1ccccc1-2", "MEAN CpLDH INHIBITION (%)": -56.08}
{"compound": "CC1(C)N=C(N)N=C(N)N1c1ccc(CCCCc2ccc(Cl)cc2Cl)cc1", "MEAN CpLDH INHIBITION (%)": -53.74}
